- Test system: UACC-257 melanoma
- Protocol Notes: NCI tumour cell line growth inhibition, 48 h; in the data active = GI50 below about 0.43 µM; inactive = the rest
Outcome (select one): class 1 = active, class 0 = inactive

Exam item: Test call, this molecule: O=C(CF)N(O)c1ccc(/C=C/c2ccccc2)cc1
Marked response: class 0

Exam item: And the next one, O=C(CN1CCN(c2ccc(Cl)cc2)CC1)N1CCN(c2nnc(-c3ccc(Cl)cc3)c(-c3ccc(Cl)cc3)n2)CC1 ?
Marked response: class 0

Exam item: And the next one, COc1ccc2c(c1)C(=O)c1c-2c(Nc2ccc(C(C)=O)cc2)nc2ccccc12 ?
Marked response: class 0

###

- Test system: 786-0 renal
- Protocol Notes: NCI tumour cell line growth inhibition, 48 h
Recorded Endpoint: TGI

Answered cases to consult:
{"columns": ["Compound", "TGI"],
 "data": [
  ["COc1ccc(-c2nn(-c3cccc(NC(=O)c4ccc5c(c4)OCCO5)c3)cc2-c2ccncc2)cc1Cl", "5.91 µM"],
  ["NC(N)=NC(P(=O)(O)O)P(=O)(O)O", "> 100 µM"]
]}

Exam item: Would you mind telling me what TGI value was observed for CO/N=C(\C)c1cccc(Nc2cc(-c3ccccc3)nc3c(O)cccc23)c1 ?
Marked response: 3.38 µM

Exam item: And the next one, Oc1c(CN2CCCC2)cc(COCc2ccc(Br)cc2)c2cccnc12 ?
Marked response: 2.59 µM

Exam item: And the next one, CCOC(=O)C1=C(O)CSC1=Nc1ccccc1 ?
Marked response: > 100 µM

Exam item: And the next one, O=c1oc2nc(-c3ccccc3)cc(C(F)(F)F)c2n1Cc1ccccc1 ?
Marked response: > 100 µM

Exam item: And the next one, CN(C)c1ccc(/C=C(\C#N)c2nc3ccccc3n2C)cc1 ?
Marked response: 99 µM

Exam item: And the next one, CCN1C(NN)=NS(=O)(=O)c2ccccc21 ?
Marked response: > 100 µM

Exam item: And the next one, O=P(NC12CC3CC(CC(C3)C1)C2)(N1CC1)N1CC1 ?
Marked response: > 100 µM

Exam item: And the next one, CC(C)(C)CC(C)(C)c1cc2c(O)c(c1)Cc1cc(C(C)(C)CC(C)(C)C)cc(c1O)Cc1cc(C(C)(C)CC(C)(C)C)cc(c1O)Cc1cc(C(C)(C)CC(C)(C)C)cc(c1O)Cc1cc(C(C)(C)CC(C)(C)C)cc(c1O)Cc1cc(C(C)(C)CC(C)(C)C)cc(c1O)C2 ?
Marked response: > 100 µM

###

- Tested on: RPMI-8226 leukemia
- Protocol Notes: NCI tumour cell line growth inhibition, 48 h
Recorded Endpoint: TGI

{"columns": ["Compound", "Recorded Endpoint", "Observed Result"],
 "data": [
  ["O=C(c1ccc2ccccc2c1)N(Cc1cccnc1)C(=S)N(Cc1cccnc1)C(=O)c1ccc2ccccc2c1", "TGI", "> 100 µM"],
  ["Oc1c2c(c3c4c1N=CC=4CCN=3)-c1c(Br)cc(Br)cc1CCN2", "TGI", "17.5 µM"],
  ["Nc1ccc(N=Nc2ccc(-c3ccc(O)cc3)cc2)c2ccc(S(=O)(=O)O)cc12", "TGI", "> 100 µM"],
  ["C[C@@H]1CC[C@@H]2[C@@H]1[C@H](OC(=O)/C=C/c1ccccc1)[C@]1(C3CCCCC3)C[C@@H](NC(=O)CO)[C@@]2(C)O1", "TGI", "44.4 µM"],
  ["C/C(=C\\C1=C(Cl)C(=O)c2ccccc2C1=O)C(=O)O", "TGI", "46.5 µM"]
]}

Exam item: Would you mind telling me what TGI value was observed for COC1CCC(O)C(/C=C/[N+](=O)[O-])C1 (centres undefined) ?
Marked response: 4.2 µM

Exam item: And the next one, O=C1Nc2ccccc2S/C1=C\c1ccccc1C(F)(F)F ?
Marked response: > 100 µM

Exam item: And the next one, O=C1CCCC/C1=C1\C(=O)Nc2cc(F)ccc21 ?
Marked response: > 100 µM

Exam item: And the next one, C1=Nc2sc3c(c2C2=NCCN12)CCCC3 ?
Marked response: 43.3 µM

Exam item: And the next one, CCOC(=O)C1=C(C)OC(=O)[C@@]2(OC)C=C(Cl)[C@@]12C ?
Marked response: > 100 µM

Exam item: And the next one, O=[N+]([O-])c1ccc2c(c1)Nc1c3ccccc3nc3cccc-2c13 ?
Marked response: > 39 µM

###

- Tested on: SK-MEL-2 melanoma
- Protocol Notes: NCI tumour cell line growth inhibition, 48 h
Recorded Endpoint: TGI (µM)
Reply with just the number (in µM).

{"columns": ["Given Smiles", "Assayed Target", "Uom", "TGI"],
 "data": [
  ["Cc1cnc(-c2c[nH]c3ccccc23)nc1-c1c[nH]c2ccccc12", "SK-MEL-2 melanoma", "µM", 20.6],
  ["O=C1c2ccccc2C(=Cc2ccccc2)c2ccccc21", "SK-MEL-2 melanoma", "µM", 4.95]
]}

Exam item: Would you mind telling me what TGI value was observed for CC(=O)O[C@H](C[C@H](C(C)C)N(C)C(=O)[C@@H](NC(=O)[C@H]1CCCCN1C)C(C)C)c1nc(C(=O)N[C@@H](Cc2ccccc2)C[C@H](C)C(=O)O)c(C(C)C)s1 ?
Marked response: 19.2

Exam item: And the next one, CCOC(=O)Nc1cc2c(c(N)n1)N=C(c1ccccc1)[C@H](C)N2 ?
Marked response: 13.6

Exam item: And the next one, O=C1c2ccccc2C(=O)c2c(NCCNCCO)ccc(O)c21 ?
Marked response: 14.7

Exam item: And the next one, CC/C(=C(/CC)c1ccc([O-])cc1)c1ccc([O-])cc1.CC/C(=C(\CC)c1ccc([O-])cc1)c1ccc([O-])cc1.O=C([CH-]C(=O)c1ccccc1)c1ccccc1.O=C([CH-]C(=O)c1ccccc1)c1ccccc1.O=C([CH-]C(=O)c1ccccc1)c1ccccc1.O=C([CH-]C(=O)c1ccccc1)c1ccccc1.[Ti+4].[Ti+4] ?
Marked response: 73.5

Exam item: And the next one, CC(C)(C)c1[nH]cnc1/C=c1\[nH]c(=O)/c(=C/c2ccccc2)[nH]c1=O ?
Marked response: 30.7

Exam item: And the next one, CC(=O)Nc1sc([N+](=O)[O-])cc1S(=O)(=O)c1ccc(Cl)cc1 ?
Marked response: 8.54

###

- Test system: HS 578T breast
- Protocol Notes: NCI tumour cell line growth inhibition, 48 h
Recorded Endpoint: TGI (µM)
Reply with just the number (in µM).

Answered cases to consult:
{"columns": ["Molecule", "TGI, µM"],
 "data": [
  ["CO/N=C(\\C)c1cccc(Nc2cc(-c3ccccc3)nc3c(O)cccc23)c1", 38.8],
  ["CCCCCC[C@H]1CC(=O)C2CCCC[C@@]23CC[C@H](CCl)N13 (stereo not given in full) (tested in a mixture with another compound)", 60.4]
]}

# input for lookup
Exam item: Would you mind telling me what TGI value was observed for CC(=O)Nc1sc([N+](=O)[O-])cc1S(=O)(=O)c1ccc(Cl)cc1 ?
Marked response: 17.2

###

- System: RPMI-8226 leukemia
- Protocol Notes: NCI tumour cell line growth inhibition, 48 h
Recorded Endpoint: TGI

{"columns": ["Given Smiles", "TGI"],
 "data": [
  ["O=C(O)c1ccc(-c2nc3ccc(Cl)cc3[nH]2)cc1", "> 100 µM"],
  ["CCCCCCCCOC(CO)CO", "> 100 µM"],
  ["O=C(O)Cc1cccc2c1Oc1ccccc1S2", "> 100 µM"],
  ["Fc1ccc(OCc2nc3cc(C(F)(F)F)ccc3nc2-c2ccccc2)cc1", "> 100 µM"],
  ["CC(C)(C)c1[nH]cnc1/C=c1\\[nH]c(=O)/c(=C/c2ccccc2)[nH]c1=O", "13.2 µM"]
]}

Exam item: Would you mind telling me what TGI value was observed for Cc1ccc(C)c(NC(=O)NCc2ccc(Cl)cc2)c1 ?
Marked response: > 100 µM

###

- Tested on: KM12 colon
- Protocol Notes: NCI tumour cell line growth inhibition, 48 h
Recorded Endpoint: GI50

{"columns": ["Given Smiles", "Assayed Target", "GI50"],
 "data": [
  ["C=CC[P+](c1ccccc1)(c1ccccc1)c1ccccc1", "KM12 colon", "1.46 µM"],
  ["CCOC(=O)/C=C/c1cc2cc(-c3csc4ccccc34)ccc2[nH]1", "KM12 colon", "2.67 µM"],
  ["Cc1cccc(C(=O)/C=C/SC(=NC#N)SCc2ccccc2)c1", "KM12 colon", "31.6 µM"],
  ["COc1cc2nccc(Oc3ccc(NC(=O)C4(C(=O)Nc5ccc(F)cc5)CC4)cc3)c2cc1Oc1ccc(N)cn1", "KM12 colon", "0.0442 µM"],
  ["CO/N=C(\\C)c1cccc(Nc2cc(-c3ccccc3)nc3c(O)cccc23)c1", "KM12 colon", "3.92 µM"],
  ["O=C(CSC(c1ccccc1)c1ccccc1)N/N=C/c1cccc(Cl)c1", "KM12 colon", "17.3 µM"]
]}

# input for lookup
Exam item: Would you mind telling me what GI50 value was observed for O=C1c2ccccc2C(=Cc2ccccc2)c2ccccc21 ?
Marked response: 1.8 µM
